target under test: T1, Las17 PPR-N fragment (residues 300-422), wild type (S. cerevisiae, UniProt Q12446 300-422)
T1 construct: Las17 (yeast WASP family protein, Las17/Bee1), S. cerevisiae, residues 300-422 (N-terminal half of the polyproline region, PPR-N); also called Las17(300-422); Las17 300-422; source: E. coli, purified (GST fusion on glutathione Sepharose, cleaved with PreScission Protease; a His-tagged form purified on a nickel column was also made)
test details: BLI; Octet R2 (Sartorius); Octet NTA Biosensors or Octet GST Biosensors, which partner was loaded is not stated; repeated three times; the constant of SH3#1-3 is called apparent
condition context: both partners purified
Ends that are not written are not given here.
quantity measured: Kd (µM)
Answers are plain numbers, in µM.

Each binder below has a recorded value; state its Kd.
1. Sla1 SH3#3 (aa 354-413) (domain or fragment, S. cerevisiae, UniProt P32790 354-413, looked up, also: 15N-labelled, Sla1, S. cerevisiae, third SH3 domain, residues 354-413; also called Sla1 SH3 domain 3; source: E. coli, purified (GST fusion, GST removed with thrombin; His-tagged Sla1-SH3 domains were also made); 15N-labelled for NMR) SKKRGIVQYDFMAESQDELTIKSGDKVYILDDKKSKDWWMCQLVDSGKSGLVPAQFIEPV
2. Sla1 SH3#1 (aa 3-68) (domain or fragment, S. cerevisiae, UniProt P32790 3-68, looked up, Sla1, S. cerevisiae, first SH3 domain, residues 3-68; also called Sla1 SH3 domain 1; source: E. coli, purified (GST fusion, GST removed with thrombin; His-tagged Sla1-SH3 domains were also made)) VFLGIYRAVYAYEPQTPEELAIQEDDLLYLLQKSDIDDWWTVKKRVIGSDSEEPVGLVPSTYIEEA

Response given:
[16, 7.5]
